The values you see were collected from patent US20060211670A1.

In this section we review reported IC50 values for a set of compounds.
# Test system: MaTu/ADR multidrug-resistant human breast tumor cells
# TEST_DESCRIPTION: Inhibition of cell proliferation (crystal violet), MaTu/ADR
# Type: cell-based
# EXPERIMENTAL_SETUP: 4 days incubation
Quick reminder: number only, in nM, skip the unit.

Known results for compounds:
• COc1cc2c(cc1O)CC[C@@H]1[C@@H]2CC[C@]2(C)[C@@H](O)CC[C@@H]12 [2-Methoxyestradiol, reference compound] = 200
• CCc1cc2c(cc1OS(N)(=O)=O)CC[C@@H]1[C@@H]2CC[C@]2(CC)[C@@H](OS(N)(=O)=O)CC[C@@H]12 = 100

Attention now turns to another entry.
[Q] Find IC50 (MaTu/ADR multidrug-resistant human breast tumor cells) for the entry CCOc1cc2c(cc1OS(N)(=O)=O)CC[C@@H]1[C@@H]2CC[C@]2(CC)[C@@H](O)CC[C@@H]12
[A] 100

---

# Tested on: DU145 human prostate tumor cells
# TEST_DESCRIPTION: Inhibition of cell proliferation (crystal violet), DU145
# Format: cell-based
# EXPERIMENTAL_SETUP: Homo sapiens, DU-145, 96 h; DU145, 4 days incubation
In this section we review reported pIC50 values for a set of molecules.
In simple prose, pIC50 is minus the logarithm base ten of a concentration in moles per litre.

• CC[C@]12CC[C@@H]3c4cc(OC)c(OS(N)(=O)=O)cc4CC[C@H]3[C@@H]1CC[C@@H]2O = 6.82
• CC[C@@]12CCC[C@H]1[C@@H]1CCc3cc(OS(N)(=O)=O)c(OC)cc3[C@H]1CC2 = 6.22

Attention now turns to another entry.
[Q] Which value of pIC50 has been reported for CC(=O)O[C@H]1C(=O)[C@@]2(C)[C@H]([C@H](OC(=O)c3ccccc3)[C@]3(O)C[C@H](OC(=O)[C@H](O)[C@@H](NC(=O)c4ccccc4)c4ccccc4)C(C)=C1C3(C)C)[C@]1(OC(C)=O)CO[C@@H]1C[C@@H]2O [Taxol, reference compound] in the records?
[A] 8.40

---

# System: HMVEC human primary dermal microvascular endothelial cells
# TEST_DESCRIPTION: Inhibition of cell proliferation (crystal violet), HMVEC
# Format: cell-based
# EXPERIMENTAL_SETUP: Homo sapiens, 96 h, 4 days incubation
In this section we review reported pIC50 values for a set of compounds.
In simple prose, pIC50 is minus the logarithm base ten of a concentration in moles per litre.

- CC(=O)O[C@H]1C(=O)[C@@]2(C)[C@H]([C@H](OC(=O)c3ccccc3)[C@]3(O)C[C@H](OC(=O)[C@H](O)[C@@H](NC(=O)c4ccccc4)c4ccccc4)C(C)=C1C3(C)C)[C@]1(OC(C)=O)CO[C@@H]1C[C@@H]2O [Taxol, reference compound]: 8.40

[Q] Which value of pIC50 has been reported for CC[C@@]12CCC[C@H]1[C@@H]1CCc3cc(OS(N)(=O)=O)c(OC)cc3[C@H]1CC2 [(4)] in the records?
[A] 6.22

---

In this section we review reported IC50 values for a set of molecules.
# Test system: MaTu/ADR multidrug-resistant human breast tumor cells
# TEST_DESCRIPTION: Inhibition of cell proliferation (crystal violet), MaTu/ADR
# Type: cell-based
# EXPERIMENTAL_SETUP: Homo sapiens, 96 h, 4 days incubation

Known results for molecules:
* CC[C@@]12CCC[C@H]1[C@@H]1CCc3cc(OS(N)(=O)=O)c(OC)cc3[C@H]1CC2 [(4)] | 450 nM
* CC(=O)O[C@H]1C(=O)[C@@]2(C)[C@H]([C@H](OC(=O)c3ccccc3)[C@]3(O)C[C@H](OC(=O)[C@H](O)[C@@H](NC(=O)c4ccccc4)c4ccccc4)C(C)=C1C3(C)C)[C@]1(OC(C)=O)CO[C@@H]1C[C@@H]2O [Taxol, reference compound] | 400 nM

Attention now turns to another entry.
[Q] Find IC50 (MaTu/ADR multidrug-resistant human breast tumor cells) for the entry CC[C@]12CC[C@@H]3c4cc(OC)c(OS(N)(=O)=O)cc4CC[C@H]3[C@@H]1CC[C@@H]2O [(1)]
[A] < 100 nM
